test system: HL-60(TB) leukemia; assay: NCI-60 one-dose screen, 48 h; conditions: 10 µM unless noted
This is part of a sample that, as a whole, favours compounds with a hit. Of some 83,000 tested, about 20% had one in any assay. Activity calls are given as the source filed them. Rule for the calls: active = growth percent below 10; inactive = the rest.
Lab note: assign the record to one of yes (1) (active), no (0) (inactive)

Example entries begin here.
COc1ccc(C2CC(=O)c3c(O)c(OC)c(OC)c(OC)c3O2)c(O)c1 (stereo unspecified) = yes (1)
C=CC(O)CCC (stereo unspecified) = no (0)
CCOC(=O)C/C(C)=N\O = no (0)
CSc1nc2ccccc2cc1/C=C1/C=C(c2ccccc2)NC1=O = no (0)
Cc1ccccc1NC(=O)Cc1csc2[n+]1C(=O)/C(=C/c1ccc([N+](=O)[O-])cc1)S2 = no (0)
O=C(Nc1cccc([N+](=O)[O-])c1)c1ccc(Cl)c(Cl)c1 = no (0)

Identify the outcome logged in this assay for the compound shown: `O=C(/C=C/c1ccccc1)c1ccc(O)c(CN2CCN(c3cc4c(cc3F)c(=O)c(C(=O)O)cn4C3CC3)CC2)c1` yes (1)

Identify the outcome logged in this assay for the compound shown: `O=S(=O)(Cc1cccc2c(CS(=O)(=O)c3ccc(Cl)cc3)cccc12)c1ccc(Cl)cc1` no (0)

Identify the outcome logged in this assay for the compound shown: `COc1cc(CO)cc2cc3ccccc3nc12` no (0)

Identify the outcome logged in this assay for the compound shown: `COc1ccc(Nc2ncnc3c2c(SC)nn3-c2ccccc2)cc1` no (0)

Identify the outcome logged in this assay for the compound shown: `O=C(Nc1ncc(Cc2ccc(Cl)cc2)s1)c1ccc2c(c1)OCCO2` yes (1)

Identify the outcome logged in this assay for the compound shown: `COc1cc(C(=O)Nc2cc(OC)c3ccn(C)c3c2)cc2c1C[C@]1(C)CC[C@@H](O)C(C)(C)[C@H]1O2` yes (1)

###

tested on: HL-60(TB) leukemia; experiment: NCI-60 one-dose screen, 48 h (100 = growth as untreated, 0 = no growth, -100 = all killed); details: 10 µM unless noted
Compounds without any hit were thinned out: in the full panel of roughly 83,000, 20% have a hit. Activity calls are given as the source filed them. Rule for the calls: active = growth percent below 10; inactive = the rest.
Each entry below carries its reported growth.

Some solved entries appear below for comparison.
C=C1CCC2C3(C)COC(c4ccccc4)OC3CCC2(C)C1/C=C/C1=CCOC1=O (stereo unspecified) = 0.949% (active)
C#Cc1cccc(NC(=O)Nc2cccc(N=C=S)c2)c1 = 98.7% [8.25 µM] (inactive)
Cc1cc(N2CCCC2)nc(NCc2cc(Nc3ccnc4cc(Cl)ccc34)ccc2F)n1 = -61.1% (active)

Name the reported growth value associated with the compound `C(=N\Nc1ncc(-c2cc3cc4c(cc3o2)OCO4)s1)/c1ccco1` 16.2% (inactive)

Name the reported growth value associated with the compound `c1ccc(-c2cn3c(ccc4ccccc43)n2)cc1` 24.4% (inactive)

Name the reported growth value associated with the compound CC(=O)C1CCC2C3CC=C4CC(OC(=O)Cc5ccc(N(CCCl)CCCl)cc5)CCC4(C)C3CCC12C (stereo unspecified) 101% (inactive)

Name the reported growth value associated with the compound `COc1cnc2c(c1)C(=O)c1c-2n(CCCNC2=NCCS2)c(=O)c2cc([N+](=O)[O-])ccc12` -58.7% (active)

Name the reported growth value associated with the compound `CC1(C)NCCC[C@]2(C)[C@H]3CC=C4[C@@H]5C[C@@](C)(CO)CC[C@]5(C)CC[C@@]4(C)[C@]3(C)CC[C@@H]12` 66.3% (inactive)

Name the reported growth value associated with the compound `COc1ccc(Cn2cc3c(c2)-c2oncc2CC3)cc1` 24.5% (inactive)

Name the reported growth value associated with the compound `O=C(Nc1ccccc1)Nc1ccc(Nc2ncnc3sc4c(c23)CCCC4)cc1` 97% (inactive)

Name the reported growth value associated with the compound `CC/C=C\C[C@H](O)C/C=C1/C(=O)C=C[C@@H]1C/C=C\CCCC(=O)OC(C)C` -38.3% (active)

Name the reported growth value associated with the compound `COc1cc(CNc2oc(-c3ccccc3)c(-c3ccccc3)c2C#N)cc(CN2CCN(C)CC2)c1O` 75.7% (inactive)

Name the reported growth value associated with the compound `Cc1ccc2c(n1)C(=O)c1[nH]c3ccccc3c1C2=O` 67.8% (inactive)
